Hello, the source for this data is ChEMBL document CHEMBL1649377, in case you need it.

Target or system UniProt:O42275; recorded quantity IC50.
Sequence (O42275 whole entry): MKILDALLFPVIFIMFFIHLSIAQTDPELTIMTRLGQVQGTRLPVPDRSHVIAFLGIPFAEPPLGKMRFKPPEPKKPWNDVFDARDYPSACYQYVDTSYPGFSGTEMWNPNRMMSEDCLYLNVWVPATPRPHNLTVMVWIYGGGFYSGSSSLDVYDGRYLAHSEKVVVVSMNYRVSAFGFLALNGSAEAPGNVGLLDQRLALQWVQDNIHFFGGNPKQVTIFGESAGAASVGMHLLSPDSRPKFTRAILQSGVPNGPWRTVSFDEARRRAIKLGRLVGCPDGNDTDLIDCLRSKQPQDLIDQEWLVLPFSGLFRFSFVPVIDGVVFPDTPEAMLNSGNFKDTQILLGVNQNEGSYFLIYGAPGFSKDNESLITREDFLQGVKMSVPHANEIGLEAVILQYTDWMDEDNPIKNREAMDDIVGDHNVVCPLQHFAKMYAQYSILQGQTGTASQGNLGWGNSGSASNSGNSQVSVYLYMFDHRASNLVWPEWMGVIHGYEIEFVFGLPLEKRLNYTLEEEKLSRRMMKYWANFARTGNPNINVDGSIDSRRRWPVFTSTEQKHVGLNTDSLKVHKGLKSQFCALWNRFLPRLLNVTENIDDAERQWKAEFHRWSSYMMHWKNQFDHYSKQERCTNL
The reply should contain only the number, in µM.

Known results for compounds:
INSERT INTO measurements (compound, recordedmetric, unitdescriptor, assayresult) VALUES
  ('CCN1C(=O)NC2C(=C1C)C(=O)Nc1c2cccc1[N+](=O)[O-] (racemic)', 'IC50', 'µM', 6),
  ('CC1=C2C(=O)Nc3c(cccc3[N+](=O)[O-])C2NC(=O)N1C (racemic)', 'IC50', 'µM', 8),
  ('O=C(N/N=C/c1ccc(O)cc1O)c1c(O)c2c(Cl)cccc2[nH]c1=O', 'IC50', 'µM', 12);

Kindly review the next compound as well.
Record NCCNCCNCCNC(=O)c1c(O)c2ccccc2[nH]c1=O has UniProt:O42275 IC50 equal to 13

* * *

measurementTarget: Cholinesterase (Equus caballus)
assayName: Inhibition of horse serum BChE after 15 mins by Ellman's method
recordedMetric: pIC50
// field semantics: pIC50 = negative decimal log of concentration (mol/L)

INSERT INTO measurements (givensmiles, measurementtarget, recordedmetric, assayresult) VALUES
  ('NCCNCCNCCNC(=O)c1c(O)c2ccccc2[nH]c1=O', 'Cholinesterase (Equus caballus)', 'pIC50', 4.72);

Let us move to another entry and its pIC50.
The recorded pIC50 for Cn1c(=O)c(C(=O)NCCNCCNCCN)c(O)c2ccccc21 is 5.28

* * *

measurementTarget: Cholinesterase (Equus caballus, UniProt P81908)
Sequence (P81908 whole entry): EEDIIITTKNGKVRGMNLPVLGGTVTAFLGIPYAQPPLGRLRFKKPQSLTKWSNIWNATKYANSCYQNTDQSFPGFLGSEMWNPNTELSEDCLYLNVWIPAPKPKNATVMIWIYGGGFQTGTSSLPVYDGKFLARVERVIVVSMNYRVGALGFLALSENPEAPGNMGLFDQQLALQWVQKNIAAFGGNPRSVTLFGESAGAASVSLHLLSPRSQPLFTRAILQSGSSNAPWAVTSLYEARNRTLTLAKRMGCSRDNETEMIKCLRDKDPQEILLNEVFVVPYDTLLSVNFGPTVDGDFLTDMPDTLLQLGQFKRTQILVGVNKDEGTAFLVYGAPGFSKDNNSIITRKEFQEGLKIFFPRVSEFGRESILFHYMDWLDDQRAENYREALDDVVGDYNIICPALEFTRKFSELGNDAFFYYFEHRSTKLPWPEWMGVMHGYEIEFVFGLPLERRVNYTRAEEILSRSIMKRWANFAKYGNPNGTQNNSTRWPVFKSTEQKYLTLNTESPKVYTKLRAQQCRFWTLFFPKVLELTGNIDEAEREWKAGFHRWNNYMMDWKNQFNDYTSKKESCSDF
assayName: Inhibition of horse serum BChE after 15 mins by Ellman's method
recordedMetric: IC50

See these solved cases before continuing.
INSERT INTO measurements (compound, recordedmetric, assayresult) VALUES
  ('CC1=C2C(=O)Nc3c(cccc3[N+](=O)[O-])C2NC(=O)N1C (racemic)', 'IC50', '> 30 µM'),
  ('CCN1C(=O)NC2C(=C1C)C(=O)Nc1c2cccc1[N+](=O)[O-] (racemic)', 'IC50', '> 30 µM');

Now look at this one.
Record summary for O=C(N/N=C/c1ccc(O)cc1O)c1c(O)c2c(Cl)cccc2[nH]c1=O : reported IC50 = > 30 µM
